Test system: HEK-293T
Assay: Multiplex assay against HEK293T
Format: toxicity, cell-based
Settings: human, 12 h, 10 µM, compound concentration 10 uM, replicate 2
Quantity Measured: Population Hoechst High Intensity Objects (%)
Numeric answer only, unit % assumed.

Population Hoechst High Intensity Objects (%) reported for this compound C[C@H]1[C@H]2CC[C@H]3[C@@H]4CC=C5C[C@@H](N(C)C)CC[C@]5(C)[C@H]4CC[C@]23CN1C : 9

Population Hoechst High Intensity Objects (%) reported for this compound CC(=O)NCCc1c(Cc2ccccc2)[nH]c2ccccc12 : 9

Population Hoechst High Intensity Objects (%) reported for this compound CCCN1CCC[C@@H]2Cc3n[nH]cc3C[C@H]21.Cl [QUINPIROLE HYDROCHLORIDE] : 5

Population Hoechst High Intensity Objects (%) reported for this compound O=S(=O)(c1ccccc1)c1cnc2c(N3CCNCC3)cccc2c1 [INTEPIRDINE] : 7

Population Hoechst High Intensity Objects (%) reported for this compound Cc1ccccc1C(=O)Nc1ccc(C(=O)N2CCCC(N(C)C)c3ccccc32)cc1.Cl (stereo not drawn) : 15

Population Hoechst High Intensity Objects (%) reported for this compound CCOc1c2c(c(OCC)c3ncccc13)CN(c1ccc(CS(=O)(=O)NC(=O)Cc3ccccc3OC)cc1C)C2=O : 9

Population Hoechst High Intensity Objects (%) reported for this compound Cc1nc2ccc(Oc3ccc(F)cc3)cc2c(=O)n1C[C@H]1CCCN(C(C)C)C1.Cl : 20

Population Hoechst High Intensity Objects (%) reported for this compound CN(C)c1ccnc2sc3c(=O)n(N4CCCCCC4)cnc3c12 : 13

Population Hoechst High Intensity Objects (%) reported for this compound CN(C)CCCc1cc(C(=O)Nc2ccc(-c3ccncc3)cc2)ccc1O.Cl.Cl : 9

Population Hoechst High Intensity Objects (%) reported for this compound CC1(COc2ccc3c(c2)ncn3-c2ccc3cccc(N4CCC(N)CC4)c3n2)COC1 : 69

Population Hoechst High Intensity Objects (%) reported for this compound N[C@@]1(C(=O)O)CO[C@H]2[C@H](C(=O)O)[C@H]21 : 7

Population Hoechst High Intensity Objects (%) reported for this compound N#Cc1c(N)nc(SCc2csc(-c3ccc(Cl)cc3)n2)c(C#N)c1-c1ccc(OCCO)cc1 : 14

Population Hoechst High Intensity Objects (%) reported for this compound CC(=O)O[C@H]1C(=O)[C@@]2(C)[C@H]([C@H](OC(=O)c3ccccc3)[C@]3(O)C[C@H](OC(=O)[C@H](O)[C@@H](NC(=O)c4ccccc4)c4ccccc4)C(C)=C1C3(C)C)[C@]1(OC(C)=O)CO[C@@H]1C[C@@H]2O : 14

----------
System: Fibroblast
Assay: Multiplex assay against human fibroblast
Type: toxicity, cell-based
Conditions: 24 h, 1 µM, compound concentration 1 uM, replicate 1
Quantity Measured: Population Mitochondria Different-Phenotype (%)
Numeric answer only, unit % assumed.

Population Mitochondria Different-Phenotype (%) reported for this compound COc1ccc2c(c1)C(C(=O)N(Cc1ccc(N(C)C)cc1)c1ccc(C(C)C)cc1)CCC2.Cl (stereo not drawn) : 5

Population Mitochondria Different-Phenotype (%) reported for this compound O=C(O)Cc1ccccc1Nc1c(Cl)cccc1Cl : 4

Population Mitochondria Different-Phenotype (%) reported for this compound COc1cc(NC(=O)CCN2CCC(OC(=O)Nc3ccccc3-c3ccccc3)CC2)c(Cl)cc1CNC[C@H](O)c1ccc(O)c2[nH]c(=O)ccc12 : 7

Population Mitochondria Different-Phenotype (%) reported for this compound CCOc1c2c(c(OCC)c3ncccc13)CN(c1ccc(CS(=O)(=O)NC(=O)Cc3ccccc3OC)cc1C)C2=O : 3

Population Mitochondria Different-Phenotype (%) reported for this compound C[C@H]1[C@H]2CC[C@H]3[C@@H]4CC=C5C[C@@H](N(C)C)CC[C@]5(C)[C@H]4CC[C@]23CN1C : 4

Population Mitochondria Different-Phenotype (%) reported for this compound N[C@@]1(C(=O)O)CO[C@H]2[C@H](C(=O)O)[C@H]21 : 5

Population Mitochondria Different-Phenotype (%) reported for this compound CC(C)(C)c1ccc(S(=O)(=O)Nc2ccc(Cl)cc2C(=O)c2cc[n+]([O-])cc2)cc1 : 1

Population Mitochondria Different-Phenotype (%) reported for this compound Cc1ccc(C(C)(O)c2nc3ccccc3s2)c(C)c1 (stereo not drawn) : 7

----------
Test system: Fibroblast
Assay: Multiplex assay against human fibroblast
Type: toxicity, cell-based
Details: 24 h, 10 µM, compound concentration 10 uM, replicate 1
Could you please report measured Population Membrane Permeable-Phenotype (%) for the items listed next?
Numeric answer only, unit % assumed.

Population Membrane Permeable-Phenotype (%) reported for this compound CN1CCN(c2nc3cc(C(F)(F)F)ccc3n3cccc23)CC1.O=C(O)/C=C\C(=O)O.O=C(O)/C=C\C(=O)O : 0

Population Membrane Permeable-Phenotype (%) reported for this compound COc1ccc2c(c1)C(C(=O)N(Cc1ccc(N(C)C)cc1)c1ccc(C(C)C)cc1)CCC2.Cl (configuration not stated) : 0

Population Membrane Permeable-Phenotype (%) reported for this compound CN(C)CCCc1cc(C(=O)Nc2ccc(-c3ccncc3)cc2)ccc1O.Cl.Cl : 0

Population Membrane Permeable-Phenotype (%) reported for this compound c1cc(OCCCN2CCCCC2)ccc1CN1CCCCC1 : 0

Population Membrane Permeable-Phenotype (%) reported for this compound N#Cc1c(N)nc(SCc2csc(-c3ccc(Cl)cc3)n2)c(C#N)c1-c1ccc(OCCO)cc1 : 0

Population Membrane Permeable-Phenotype (%) reported for this compound Cc1ccc(F)cc1C(=O)Nc1ccc(C(=O)N2Cc3cccn3Cc3ccccc32)c(Cl)c1 : 2

Population Membrane Permeable-Phenotype (%) reported for this compound Cl.Clc1ccc2nsnc2c1NC1=NCCN1 [TIZANIDINE HYDROCHLORIDE] : 0

Population Membrane Permeable-Phenotype (%) reported for this compound CCCN1CCC[C@@H]2Cc3n[nH]cc3C[C@H]21.Cl [QUINPIROLE HYDROCHLORIDE] : 0

Population Membrane Permeable-Phenotype (%) reported for this compound COc1c(C)cc(NC(=O)c2nn(Cc3ccc(F)cc3)c3c2CN(C(=O)c2ccc[nH]2)C[C@]3(C)C(N)=O)cc1C : 0

Population Membrane Permeable-Phenotype (%) reported for this compound CSCC[C@H](NC=O)C(=O)N[C@@H](CC(C)C)C(=O)N[C@@H](Cc1ccccc1)C(=O)O : 3

Population Membrane Permeable-Phenotype (%) reported for this compound CC(=O)NCCc1c(Cc2ccccc2)[nH]c2ccccc12 : 1

Population Membrane Permeable-Phenotype (%) reported for this compound COc1cc(C(=O)N(CCCc2ccccc2)Cc2ccc(CC(=O)O)cc2)cc(OC)c1C : 1

Population Membrane Permeable-Phenotype (%) reported for this compound COc1cc(NC(=O)CCN2CCC(OC(=O)Nc3ccccc3-c3ccccc3)CC2)c(Cl)cc1CNC[C@H](O)c1ccc(O)c2[nH]c(=O)ccc12 : 0

Population Membrane Permeable-Phenotype (%) reported for this compound C[C@H](NC(=O)c1c(C(F)F)nn(C)c1Oc1cccc(C(F)(F)F)c1)c1ccc(C(=O)O)cc1 : 2

Population Membrane Permeable-Phenotype (%) reported for this compound O=C(NCC(=O)N1CC[C@H](N[C@H]2CC[C@@](O)(c3ccc(-c4ncccn4)cn3)CC2)C1)c1cccc(C(F)(F)F)c1 : 0

Population Membrane Permeable-Phenotype (%) reported for this compound CCNC1(C(N)=O)CCN(c2ncnc3c2nc(-c2ccccc2Cl)n3-c2ccc(Cl)cc2)CC1 : 0

Population Membrane Permeable-Phenotype (%) reported for this compound N[C@@]1(C(=O)O)CO[C@H]2[C@H](C(=O)O)[C@H]21 : 0

----------
System: HEK-293T
Assay: Multiplex assay against HEK293T
Format: toxicity, cell-based
Details: human, 48 h, 1 µM, compound concentration 1 uM, replicate 1
Quantity Measured: Total Cell Count
Give the figure only, with no unit attached.

The recorded Total Cell Count with HEK-293T for CN(C)CCCc1cc(C(=O)Nc2ccc(-c3ccncc3)cc2)ccc1O.Cl.Cl was 814

The recorded Total Cell Count with HEK-293T for CCOc1c2c(c(OCC)c3ncccc13)CN(c1ccc(CS(=O)(=O)NC(=O)Cc3ccccc3OC)cc1C)C2=O was 822

The recorded Total Cell Count with HEK-293T for O=C(O)c1cc2ccccc2c(Cc2c(O)c(C(=O)O)cc3ccccc23)c1O was 998

The recorded Total Cell Count with HEK-293T for CCCN1CCC[C@@H]2Cc3n[nH]cc3C[C@H]21.Cl [QUINPIROLE HYDROCHLORIDE] was 1105

----------
Tested on: HEK-293T
Experiment: Multiplex assay against HEK293T
Type: toxicity, cell-based
Conditions: human, 48 h, 1 µM, compound concentration 1 uM, replicate 2
Classify as follows. Reported Total Cell Count greater than or equal to 600: true. Reported Total Cell Count below: false.

For this compound, is measured Total Cell Count 600 or higher? Cc1ccc(-c2ccc(F)cc2COc2ccc(CCC(=O)O)cc2)cc1 true

For this compound, is measured Total Cell Count 600 or higher? CCOc1c2c(c(OCC)c3ncccc13)CN(c1ccc(CS(=O)(=O)NC(=O)Cc3ccccc3OC)cc1C)C2=O true

For this compound, is measured Total Cell Count 600 or higher? CC(=O)NCCc1c(Cc2ccccc2)[nH]c2ccccc12 [LUZINDOLE] false
